assay: AUC in Wistar rat at 3 mg/kg, po; type: ADME, organism-based; set-up: dose 3 mg/kg; conditions: in vivo
Assay Readout: AUC

> print(dat)
                    structure.smiles.string  assay.readout  observed.measurement
1  Cc1cnc(-c2ccc(OC(F)(F)F)cc2)n1Cc1ccccc1OCCC[C@@H](C)CC(=O)O            AUC          4920 ng·h/mL

====

assay: AUC in Wistar rat at 1 mg/kg, iv; type: ADME, organism-based; design: dose 1 mg/kg; details: in vivo
Assay Readout: AUC (ng·h/mL)

> print(dat)
                    structure.smiles.string  units.text  observed.measurement
1  Cc1cnc(-c2ccc(OC(F)(F)F)cc2)n1Cc1ccccc1OCCC[C@@H](C)CC(=O)O     ng·h/mL                  1590
